Values were extracted from patent US11274268B2.

system: human skin; experiment: Skin irritation test of active ingredient (patch method, CTFA guidelines); type: in vivo; conditions: content 0.5%; Equation 1
attribute_measured: Degree of irritation
Output: the number by itself.

O=C(O)c1ccc(N(CCN(CCN(c2ccc(C(=O)O)o2)c2ccc(C(=O)O)o2)c2ccc(C(=O)O)o2)CCN(c2ccc(C(=O)O)o2)c2ccc(C(=O)O)o2)o1 [Embodiment 4] : 0

Prompt: GET /values?readout=Degree of irritation&item= O=C(O)c1cncc(N2CCCN(c3cncc(C(=O)O)c3)CCN(c3cncc(C(=O)O)c3)CCCN(c3cncc(C(=O)O)c3)CC2)c1 [Embodiment 11]
Response: 0

Prompt: GET /values?readout=Degree of irritation&item= O=C(O)c1ccc(N2CCN(c3ccc(C(=O)O)o3)CCN(c3ccc(C(=O)O)o3)CCN(c3ccc(C(=O)O)o3)CC2)o1 [Embodiment 8]
Response: 0
